Where do the numbers come from? From patent US7176230B2.

# Tested on: collagen-induced platelet aggregation
# Procedure summary: Platelet aggregation induced by collagen (turbidimetric, washed platelet suspension)
# Assay type: cell-based, rabbit
# Condition notes: Oryctolagus cuniculus, Platelet, 1 min; rabbit platelets incubated with test compound at 37° C. for 1 min, then collagen (10 μg/mL)
pIC50: −log10 of the molar value.
Measure: pIC50

Compound: OCc1ccc(-c2nn(Cc3ccccc3)c3ccccc23)cc1 [YD-1, reference compound]
Tgt: collagen-induced platelet aggregation
pIC50: 3.91

I = OCc1ccc(-c2cn(Cc3ccccc3)c3ccccc23)cc1 [Compound 10, N-Benzyl-3-(4-hydroxymethylphenyl)indole]
II = OCc1ccc(-c2nn(Cc3ccccc3)c3ccccc23)o1
Prompt: Which value of pIC50 is numerically greater: that of I or that of II ? Provide the label of your selected option as the answer.
Completion: II
(II: 4.26, I: 3.77)

---

# Test system: PAF-induced platelet aggregation
# Procedure summary: Platelet aggregation induced by PAF (turbidimetric, washed platelet suspension)
# Assay type: cell-based, rabbit
# Condition notes: rabbit platelets incubated with test compound at 37° C. for 1 min, then PAF (2 ng/mL)
Measure: IC50 (µM)

Test smiles: COc1cccc(C(=O)n2cc(-c3ccc(CO)o3)c3ccccc32)c1
Unit symbol: µM
IC50: 169

P = O=S(=O)(c1ccccc1)n1cc(-c2ccc(CO)s2)c2ccccc21
Q = COc1ccc(C(=O)n2cc(-c3ccc(CO)o3)c3ccccc32)cc1
Prompt: Which value of IC50 is numerically greater: that of P or that of Q ? Provide the label of your selected option as the answer.
Completion: Q

---

Below, each of the molecules is paired with its reported IC50 value.
# Tested on: thrombin-induced platelet aggregation
# Procedure summary: Platelet aggregation induced by thrombin (turbidimetric, washed platelet suspension)
# Type: cell-based, rabbit
# Condition notes: rabbit platelets incubated with test compound at 37° C. for 1 min, then thrombin (0.1 unit/mL)

Known results for molecules:
Molecule: O=S(=O)(c1ccccc1)n1cc(-c2ccc(CO)o2)c2ccccc21 [Compound 16]
IC50: 173 µM
//
Molecule: O=C(c1ccccc1)n1cc(-c2ccc(CO)o2)c2ccccc21 [Compound 32]
IC50: > 300 µM
//
Molecule: O=S(=O)(c1ccccc1)n1cc(-c2ccc(CO)s2)c2ccccc21 [Compound 17]
IC50: > 300 µM
//
Molecule: OCc1ccc(-c2cn(Cc3ccccc3)c3ccccc23)s1 [Compound 8]
IC50: > 300 µM
//
Molecule: COc1ccc(C(=O)n2cc(-c3ccc(CO)o3)c3ccccc32)cc1 [Compound 34]
IC50: > 300 µM
//
Molecule: OCc1ccc(-c2cn(Cc3ccccc3)c3ccccc23)o1 [Compound 7]
IC50: > 300 µM

Attention now turns to another entry.
Prompt: Give a short answer stating reported IC50 for COc1cccc(C(=O)n2cc(-c3ccc(CO)o3)c3ccccc32)c1 [Compound 33] .
Completion: 175 µM

---

Below, each of the compounds is paired with its reported IC50 value.
# System: PAF-induced platelet aggregation
# Procedure summary: Platelet aggregation induced by PAF (turbidimetric, washed platelet suspension)
# Format: cell-based, rabbit
# Condition notes: rabbit platelets incubated with test compound at 37° C. for 1 min, then PAF (2 ng/mL)

Known results for compounds:
Test smiles: O=C(c1ccccc1)n1cc(-c2ccc(CO)o2)c2ccccc21
Data value: > 300 µM
//
Test smiles: OCc1ccc(-c2cn(Cc3ccccc3)c3ccccc23)o1
Data value: > 300 µM
//
Test smiles: OCc1ccc(-c2cn(Cc3ccccc3)c3ccccc23)s1
Data value: > 300 µM

Attention now turns to another entry.
Prompt: Give a short answer stating reported IC50 for O=S(=O)(c1ccccc1)n1cc(-c2ccc(CO)o2)c2ccccc21 .
Completion: 164 µM
